- Test system: ZEAMX (Corn, Field)
- Protocol Description: Preemergence herbicidal evaluation
- Type: in vivo, Zea mays
- Assay Setup: rate 0.1250 kg/ha; rated 4-5 weeks after treatment
Quantity: ZEAMX preemergence herbicidal rating

Molecule	Result
CN1C(=O)CSC1=Nc1cc(N2C(=O)C3=C(CCCC3)C2=O)c(F)cc1Cl [Compound 1]	0.0
CCC1SC(=Nc2cc(-n3c(=O)cc(C(F)(F)F)n(C)c3=O)c(F)cc2Cl)N(C)C1=O (stereo not drawn) [Compound 10]	7.3
COC(=O)CN1C(=O)CSC1=Nc1cc(-n2c(=O)cc(C(F)(F)F)n(C)c2=O)c(F)cc1Cl [Compound 17]	1.0
CCOC(=O)CN1C(=O)C(=C2CCCC2)SC1=Nc1cc(-n2c(=O)cc(C(F)(F)F)n(C)c2=O)c(F)cc1Cl [Compound 18]	0.0
CC1SC(=Nc2cc(N3C(=O)C4=C(CCCC4)C3=O)c(F)cc2Cl)N(C)C1=O (stereo not drawn) [Compound 4]	2.0
CCOC(=O)CN1C(=O)C(C)SC1=Nc1cc(-n2c(=O)cc(C(F)(F)F)n(C)c2=O)c(F)cc1Cl (stereo not drawn) [Compound 12]	6.5

* * *

Below, each entry is listed alongside its reported CASOB herbicidal rating.
- System: CASOB (Sicklepod)
- Protocol Description: Postemergence herbicidal evaluation
- Type: in vivo, Cassia obtusifolia
- Assay Setup: postemergence, rate 0.0313 kg/ha
Quantity: CASOB herbicidal rating

Molecule	Readout Number
C=CCN1C(=O)C(CC(=O)NOC)SC1=Nc1cc(-n2c(=O)cc(C(F)(F)F)n(C)c2=O)c(F)cc1Cl (stereo not shown)	0.0
CCOC(=O)CN1C(=O)C(C)SC1=Nc1cc(-n2c(=O)cc(C(F)(F)F)n(C)c2=O)c(F)cc1Cl (stereo not shown)	3.0
O=C1CSC(=Nc2cc(N3C(=O)C4=C(CCCC4)C3=O)c(F)cc2Cl)N1c1ccccc1	0.0
CCOC(=O)CN1C(=O)C(CC(=O)OC(C)C(=O)OCC)S/C1=N/c1cc(-n2c(=O)cc(C(F)(F)F)n(C)c2=O)c(F)cc1Cl (stereo not shown)	0.0

* * *

- System: GALAP (Galium)
- Protocol Description: Preemergence herbicidal evaluation
- Assay type: in vivo, Galium aparine
- Assay Setup: rate 0.0156 kg/ha; rated 4-5 weeks after treatment
Quantity: Preemergence herbicidal rating GALAP

Compound	Quantity	Readout Number
CCOC(=O)CN1C(=O)C(CC(=O)OC(C)C)SC1=Nc1cc(-n2c(=O)cc(C(F)(F)F)n(C)c2=O)c(F)cc1Cl (stereo not shown)	Preemergence herbicidal rating GALAP	0.0
Cn1c(C(F)(F)F)cc(=O)n(-c2cc(N=C3SCC(=O)N3Cc3ccco3)c(Cl)cc2F)c1=O	Preemergence herbicidal rating GALAP	3.0
COC(=O)[C@H](Cc1ccc([N+](=O)[O-])cc1)N1C(=O)CSC1=Nc1cc(-n2c(=O)cc(C(F)(F)F)n(C)c2=O)c(F)cc1Cl	Preemergence herbicidal rating GALAP	0.0
CCOC(=O)CN1C(=O)C(CC(=O)O)O/C1=N/c1cc(-n2c(=O)cc(C(F)(F)F)n(C)c2=O)c(F)cc1Cl (stereo not shown)	Preemergence herbicidal rating GALAP	0.0
CCOC(=O)CN1C(=O)C(Cc2ccccc2OC(C)C(=O)O)S/C1=N/c1cc(-n2c(=O)cc(C(F)(F)F)n(C)c2=O)c(F)cc1Cl (stereo not shown)	Preemergence herbicidal rating GALAP	0.0
CCOC(=O)CN1C(=O)CSC1=Nc1cc(N2C(=O)C3=C(CCCC3)C2=O)c(F)cc1Cl	Preemergence herbicidal rating GALAP	0.0
CCOC(=O)CN1C(=O)C(SC)SC1=Nc1cc(-n2c(=O)cc(C(F)(F)F)n(C)c2=O)c(F)cc1Cl (stereo not shown)	Preemergence herbicidal rating GALAP	0.0
Cn1c(C(F)(F)F)cc(=O)n(-c2cc(N=C3SCC(=O)N3[C@H](Cc3ccccc3)C(=O)O)c(Cl)cc2F)c1=O	Preemergence herbicidal rating GALAP	0.0
C=CCN1C(=O)C(CC(=O)Nc2ccccc2)SC1=Nc1cc(-n2c(=O)cc(C(F)(F)F)n(C)c2=O)c(F)cc1Cl (stereo not shown)	Preemergence herbicidal rating GALAP	1.0
Cn1c(C(F)(F)F)cc(=O)n(-c2cc(N=C3SCC(=O)N3C3CCOC3=O)c(Cl)cc2F)c1=O (stereo not shown)	Preemergence herbicidal rating GALAP	0.0
